# pKi against Thermolysin (Bacillus thermoproteolyticus, UniProt P00800), merged from multiple literature sources
pKi: −log10 of the molar value.
Record true whenever pKi is at 7 or higher; record false when lower.

# compound, label
rows = [
    ("C[C@H](C(=O)NO)C(=O)N[C@@H](C)C(=O)NCC(N)=O", "false"),
    ("CCCCCCP(=O)(O)OC(CC(C)C)C(=O)NC(Cc1c[nH]c2ccccc12)C(=O)NC (stereo not given)", "false"),
    ("CC(C)CC(NC(C)C(=O)O)C(=O)NC(Cc1ccccc1)C(=O)O (stereo not given)", "false"),
    ("C[C@H](NP(=O)(O)CNC(=O)OCc1ccccc1)C(=O)NCC(=O)O", "false"),
    ("CC(C)C[C@H](NP(=O)(O)CNC(=O)OCc1ccccc1)C(=O)NCCC(C)(C)C", "true"),
]

Ask | Determine whether this compound has pKi no lower than 7: CC(C)C[C@H](NP(=O)(O)CNC(=O)OCc1ccccc1)C(=O)NCCc1cccs1
Reply | false

Ask | Decide: is the reported value of pKi for CC(C)C[C@@H](CO)C[Si](CN)(c1ccccc1)c1ccccc1 equal to or greater than 7?
Reply | true

Ask | Does COC(=O)[C@H](CC(C)C)NC(=O)[C@@H](Cc1ccccc1)C[N+](=O)[O-] have a reported pKi of at least 7?
Reply | false

Ask | Reported pKi at or above 7? CC(C)C[C@H](NC(=O)[C@H](CC(C)C)NP(=O)(O)CNC(=O)OCc1ccccc1)C(=O)O
Reply | true
